This section presents binders with their documented IC50, CGRP-induced cAMP production, L6 cells values.
# Test target: T1, rat alpha CGRP (SEQ ID NO: 82) (rat)
# T1 peptide: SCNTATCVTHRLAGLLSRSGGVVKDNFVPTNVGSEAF
# Procedure details: cell-based or functional assay
Reported property: IC50, CGRP-induced cAMP production, L6 cells (nM)

| Binder | Numeric readout |
| --- | --- |
| lipocalin mutein SEQ ID NO: 23 (designed binder, biotinylated by NHS chemistry for capture in SPR) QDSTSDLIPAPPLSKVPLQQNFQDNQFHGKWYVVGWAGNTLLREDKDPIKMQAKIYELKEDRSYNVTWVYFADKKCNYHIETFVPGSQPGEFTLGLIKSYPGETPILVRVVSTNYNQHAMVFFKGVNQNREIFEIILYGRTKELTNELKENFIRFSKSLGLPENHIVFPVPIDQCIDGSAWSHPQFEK | 0.07 |
| lipocalin mutein SEQ ID NO: 18 (designed binder) QDSTSDLIPAPPLSKVPLQQNFQDNQFHGKWYVVGRAANDVLRDDNDPEKMEATIYELKEDKSYNVTDVGFVQKKCMYVVHTFVPGSQPGEFTLGNIKSYPGVTSALVRVVSTNYNQHAMVFFKLVKQNRELFEVTLYGRTKELTSELKENFIRFSKSLGLPENHIVFPVPIDQCIDGSAWSHPQFEK | 0.06 |
| lipocalin mutein SEQ ID NO: 24 (designed binder, biotinylated by NHS chemistry for capture in SPR) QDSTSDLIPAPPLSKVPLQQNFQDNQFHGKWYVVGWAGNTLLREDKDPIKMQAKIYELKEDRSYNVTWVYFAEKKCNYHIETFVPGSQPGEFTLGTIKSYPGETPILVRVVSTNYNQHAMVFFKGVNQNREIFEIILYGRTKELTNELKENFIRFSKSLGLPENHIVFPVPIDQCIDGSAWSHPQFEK | 0.07 |
